- assay notes: In vivo assessment of maximum tolerated dose (MTD)
- stated conditions: B6.SJL-Ptprc<a>Pepc<b>/BoyJ (B6.CD45.1), mouse, in vivo, ip; non-tumour bearing female mice, 5 day intraperitoneal injection
- Protocol: The Peter MacCallum Cancer Centre Animal Ethics Committee approved all in vivo procedures in this study. B6.SJL-PtprcPepc/BoyJ (B6.CD45.1) mice were purchased from the Walter and Eliza Hall Institute (Melbourne, VIC). […] Full Blood Examination (FBE), serum, spleen weight and morphological examination for toxicity were assessed on day 8 and day 15. […]
assay readout: MTD at 5 day (mg/kg)
Numeric only. Scale: mg/kg

Which value of MTD at 5 day has been reported for CC(=O)N1c2ccc(-c3ccc(CNC(=O)c4cn5cc(-c6cnc(N)nc6)nc(N6CCOCC6)c5n4)cc3)cc2CC[C@@H]1C in the records?
50

---

- System: OPM2 cells
- assay notes: Cell proliferation assay (ViaLight, cellular ATP)
- Type: cell-based
- stated conditions: Homo sapiens, OPM-2, 120 h, 5 days, 5 μM to 1 nM
assay readout: GI50

Which value of GI50 has been reported for CC(=O)N1c2ccc(-c3ccc(C(=O)NCc4cn5cc(-c6cnc(N)nc6)nc(N6CCOCC6)c5n4)cc3)cc2CC[C@@H]1C in the records?
0.1 to 0.5 µM

Which value of GI50 has been reported for CC(=O)N1c2ccc(-c3ccc(C(=O)NCCNC(=O)c4cn5cc(-c6cnc(N)nc6)nc(N6CCOCC6)c5n4)cc3)cc2CC[C@@H]1C in the records?
≤ 0.1 µM

Which value of GI50 has been reported for CC(=O)N1c2ccc(-c3ccc(C(=O)NCCCNC(=O)c4sc5c(N6CCOCC6)nc(-c6cnc(N)nc6)nc5c4C)cc3)cc2CC[C@@H]1C in the records?
> 0.5 µM

Which value of GI50 has been reported for CC(=O)N1c2ccc(-c3ccc(CNC(=O)c4cc5nc(-c6cnc(N)nc6)cc(N6CCOCC6)n5n4)cc3)cc2CC[C@@H]1C in the records?
≤ 0.1 µM

Which value of GI50 has been reported for CC(=O)N1c2ccc(-c3ccc(NC(=O)CNC(=O)c4nc5c(N6CCOCC6)nc(-c6cnc(N)nc6)cn5c4C)cc3)cc2CC[C@@H]1C in the records?
≤ 0.1 µM

Which value of GI50 has been reported for CC(=O)N1c2ccc(-c3ccc(C(=O)NCCCNC(=O)c4cn5cc(-c6cnc(N)nc6)nc(N6CCOCC6)c5n4)cc3)cc2CC[C@@H]1C in the records?
> 0.5 µM

---

- Tested on: OPM2 cells
- assay notes: Cell proliferation assay (ViaLight, cellular ATP)
- Format: cell-based
- stated conditions: Homo sapiens, OPM-2, 120 h, 5 days, 5 μM to 1 nM
assay readout: GI50

Given the entry CC(=O)N1c2ccc(-c3ccc(CC(=O)NCc4cn5cc(-c6cnc(N)nc6)nc(N6CCOCC6)c5n4)cc3)cc2CC[C@@H]1C , what GI50 was observed with OPM2 cells?
100 to 500 nM

Given the entry CC(=O)N1c2ccc(-c3ccc(NC(=O)Cc4cn5cc(-c6cnc(N)nc6)nc(N6CCOCC6)c5n4)cc3)cc2CC[C@@H]1C , what GI50 was observed with OPM2 cells?
≤ 100 nM

Given the entry CC(=O)N1c2ccc(-c3ccc(CNC(=O)c4cc5c(N6CCOCC6)nc(-c6cnc(N)nc6)cn5c4)cc3)cc2CC[C@@H]1C , what GI50 was observed with OPM2 cells?
≤ 100 nM

Given the entry CC(=O)N1c2ccc(-c3ccc(C(=O)N4CCN(Cc5cn6cc(-c7cnc(N)nc7)nc(N7CCOCC7)c6n5)CC4)cc3)cc2CC[C@@H]1C , what GI50 was observed with OPM2 cells?
100 to 500 nM

Given the entry CC(=O)N1c2ccc(-c3ccc(CNC(=O)c4cn5cc(-c6cnc(N)cc6C(F)(F)F)nc(N6CCOCC6)c5n4)cc3)cc2CC[C@@H]1C , what GI50 was observed with OPM2 cells?
> 500 nM

Given the entry CC(=O)N1c2ccc(-c3cccc(CC(=O)NCc4cn5cc(-c6cnc(N)nc6)nc(N6CCOCC6)c5n4)c3)cc2CC[C@@H]1C , what GI50 was observed with OPM2 cells?
100 to 500 nM

Given the entry CC(=O)N1c2ccc(-c3ccc(C(=O)N4CCN(C(=O)c5cn6cc(-c7cnc(N)nc7)nc(N7CCOCC7)c6n5)CC4)cc3)cc2CCC1C (stereo not shown) , what GI50 was observed with OPM2 cells?
100 to 500 nM

Given the entry CC(=O)N1c2ccc(-c3ccc(CNC(=O)c4cn5cc(-c6cnc(N)nc6)nc(N6CCOCC6)c5n4)cc3)cc2CC[C@@H]1C , what GI50 was observed with OPM2 cells?
≤ 100 nM

Given the entry CC(=O)N1c2ccc(-c3ccc(C(=O)NCCCNC(=O)c4cc5nc(-c6cnc(N)nc6)nc(N6CCOCC6)c5s4)cc3)cc2CC[C@@H]1C , what GI50 was observed with OPM2 cells?
> 500 nM

Given the entry CC(=O)N1c2ccc(-c3ccc(CCNC(=O)c4sc5c(N6CCOCC6)nc(-c6cnc(N)nc6)nc5c4C)cc3)cc2CC[C@@H]1C , what GI50 was observed with OPM2 cells?
100 to 500 nM

Given the entry CC(=O)N1c2ccc(-c3ccc(CN(C)C(=O)c4cn5cc(-c6cnc(N)nc6)nc(N6CCOCC6)c5n4)cc3)cc2CC[C@@H]1C , what GI50 was observed with OPM2 cells?
100 to 500 nM

Given the entry CC(=O)N1c2ccc(-c3ccc(CN(C)Cc4sc5c(N6CCOCC6)nc(-c6cnc(N)nc6)nc5c4C)cc3)cc2CC[C@@H]1C , what GI50 was observed with OPM2 cells?
> 500 nM

Given the entry CC(=O)N1c2ccc(-c3ccc(CN(C)C(=O)c4cc5nc(-c6cnc(N)nc6)nc(N6CCOCC6)c5s4)cc3)cc2CC[C@@H]1C , what GI50 was observed with OPM2 cells?
> 500 nM

Given the entry CC(=O)N1c2ccc(-c3ccc(CN4CCN(Cc5cn6cc(-c7cnc(N)nc7)nc(N7CCOCC7)c6n5)CC4)cc3)cc2CC[C@@H]1C , what GI50 was observed with OPM2 cells?
100 to 500 nM

Given the entry CC(=O)N1c2ccc(-c3ccc(CNC(=O)c4nc5c(N6CCOCC6)nc(-c6cnc(N)nc6)cn5c4C)cc3)cc2CC[C@@H]1C , what GI50 was observed with OPM2 cells?
≤ 100 nM

Given the entry CC(=O)N1c2ccc(-c3ccc(C(=O)NCCNC(=O)c4nc5c(N6CCOCC6)nc(-c6cnc(N)nc6)cn5c4C)cc3)cc2CC[C@@H]1C , what GI50 was observed with OPM2 cells?
≤ 100 nM

Given the entry CC(=O)N1c2ccc(-c3ccc(CCNC(=O)c4cc5nc(-c6cnc(N)nc6)nc(N6CCOCC6)c5s4)cc3)cc2CC[C@@H]1C , what GI50 was observed with OPM2 cells?
≤ 100 nM

Given the entry CC(=O)N1c2ccc(-c3ccc(C(=O)NCCNC(=O)c4cn5cc(-c6cnc(N)nc6)nc(N6CCOCC6)c5n4)cc3)cc2CCC1C (stereo not shown) , what GI50 was observed with OPM2 cells?
≤ 100 nM

Given the entry CC(=O)N1c2ccc(-c3ccc([C@@H](C)NC(=O)c4cn5cc(-c6cnc(N)nc6)nc(N6CCOCC6)c5n4)cc3)cc2CC[C@@H]1C , what GI50 was observed with OPM2 cells?
≤ 100 nM

Given the entry CC(=O)N1c2ccc(-c3ccc(CNC(=O)c4nc5c(N6CCOCC6)nc(-c6cnc(N)nc6)cn5n4)cc3)cc2CC[C@@H]1C , what GI50 was observed with OPM2 cells?
≤ 100 nM

Given the entry CC(=O)N1c2ccc(-c3ccc(CNC(=O)c4cn5cc(-c6cnc(N)nc6)nc(N6CCOCC6)c5n4)cc3)cc2CCC1C (stereo not shown) , what GI50 was observed with OPM2 cells?
≤ 100 nM

Given the entry CC(=O)N1c2ccc(-c3ccc(CC(=O)NCc4cc5nc(-c6cnc(N)nc6)nc(N6CCOCC6)c5s4)cc3)cc2CC[C@@H]1C , what GI50 was observed with OPM2 cells?
100 to 500 nM

Given the entry CC(=O)N1c2ccc(-c3ccc(C(C)(C)NC(=O)c4cn5cc(-c6cnc(N)nc6)nc(N6CCOCC6)c5n4)cc3)cc2CC[C@@H]1C , what GI50 was observed with OPM2 cells?
100 to 500 nM

Given the entry CC(=O)N1c2ccc(-c3ccc(CNC(=O)Cc4cn5cc(-c6cnc(N)nc6)nc(N6CCOCC6)c5n4)cc3)cc2CC[C@@H]1C , what GI50 was observed with OPM2 cells?
> 500 nM

Given the entry CC(=O)N1c2ccc(-c3ccc(CNC(=O)c4cn5cc(-c6cccc7[nH]ncc67)nc(N6CCOCC6)c5n4)cc3)cc2CC[C@@H]1C , what GI50 was observed with OPM2 cells?
≤ 100 nM
